- ASSAY METHOD TEXT: Cytotoxicity against hTERT-RPE1 cells assessed as reduction in cell viability by MTT assay relative to control
- Assay type: cell-based, TERT-RPE1
- SETUP CONDITIONS: human, read-out: INH
Entries whose cytotoxicity is below 10% take TRUE; entries at or above 10% take FALSE.

## Input Please indicate whether the reported cytotoxicity of Cn1c(-c2csc(NN=C3CCCCC3)n2)nc2ccccc21 is strictly below 10%.
## Output FALSE

## Input Another molecule to check: CN(C)c1ccc(/C=N\Nc2nc(-c3nc4ccccc4n3C)cs2)cc1
## Output TRUE

## Input Lookup Cn1c(-c2csc(N/N=C\c3ccc([N+](=O)[O-])o3)n2)nc2ccccc21
## Output FALSE

## Input Same lookup for Cn1c(-c2csc(NN=C3CCCC3)n2)nc2ccccc21 , please.
## Output FALSE

## Input Input Cc1ccc(/C=N\Nc2nc(-c3nc4ccccc4n3C)cs2)o1
## Output TRUE

## Input # iterate: Cc1ccc(/C=N\Nc2nc(-c3nc4ccccc4n3C)cs2)cc1
## Output FALSE

## Input Now this one: Cn1c(-c2csc(N/N=C\c3ccc(F)cc3)n2)nc2ccccc21
## Output TRUE

## Input Also need COc1ccc(/C=N\Nc2nc(-c3nc4ccccc4n3C)cs2)cc1OC , thanks.
## Output FALSE

## Input Next molecule: Cn1c(-c2csc(N/N=C\c3ccc([N+](=O)[O-])cc3)n2)nc2ccccc21
## Output TRUE
